Measured values drawn from PubChem BioAssay for this set.

Assay: small-molecule microarray binders of probe aXIP, primary screen, biochemical, NeuroSMM set, 635/667 nm fluorescence (AID 1119);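 further: probe is the protein aXip251-270 applied at 1 µg/mL to compound-printed slides; binding of probe to printed compounds measured as 667 nm fluorescence plus signal to noise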
Conditions: higher = more signal, called active from +8 up or from −8 down
Where composite Z-score equals or exceeds -0.1, the correct label is Yes; where it does not, the label is No.

The examples below pair each entry with its known result.
{"molecule": "O=C1C2C=CC(C(O)c3ccccc3)N(Nc3ccccc3F)C2C(=O)N1c1ccccc1 (centres undefined)", "assignedCategory": "No"}
{"molecule": "C[C@@H]1NC(=O)[C@@]23C(=O)N[C@@H](Cc4ccccc4)C2[C@H](C)[C@@]2(C)O[C@H]2C3/C=C/C/C=C\\CNC(=O)[C@@H]2CCCN2C1=O (some centres undefined)", "assignedCategory": "No"}

Threshold query (composite Z-score >= -0.1) on COc1cc(CO)cc(I)c1O[C@H]1C=C(C(=O)NCCO)C[C@@H](NCc2ccc(F)cc2)[C@@H]1O
Yes

Threshold query (composite Z-score >= -0.1) on C[C@H]1NC(=O)[C@@]23C(=O)N[C@@H](Cc4ccccc4)C2[C@H](C)[C@@]2(C)O[C@H]2C3/C=C/C/C=C\CNC(=O)[C@H](Cc2ccccc2)NC1=O (some centres undefined)
No

Threshold query (composite Z-score >= -0.1) on COc1ccc([Si](C)(C)[C@@H]2[C@@H](CCO)O[C@]3(C(=O)N(Cc4ccc(N5CCCCC5=O)cc4)c4ccccc43)[C@H]2C)cc1
Yes

Threshold query (composite Z-score >= -0.1) on COCCOC(=O)N1C(=O)[C@@]2(c3cc(C#Cc4ccc(OC)cc4)ccc31)[C@H](c1ccccc1OCCO)N1[C@H](c3ccccc3)[C@H](c3ccccc3)OC(=O)[C@H]1[C@@H]2C(=O)N1CCCCCCC1
Yes

Threshold query (composite Z-score >= -0.1) on [N-]=[N+]=NCc1ccccc1C[C@@]1(C(=O)N2CCOCC2)N=C(c2ccc(OCCCO)cc2)O[C@@H]1c1ccccc1
Yes

Threshold query (composite Z-score >= -0.1) on CC1CC/C=C\[C@H]2OC34C=CCN(C(C)C)C(=O)[C@H]3N(CCCCCCO)C(=O)[C@@H]4C2C(=O)O1 (some centres undefined)
No

Threshold query (composite Z-score >= -0.1) on O=C(NCc1ccccc1)[C@@H]1c2ccccc2C(=O)N(Cc2ccccc2C(F)(F)F)[C@H]1c1ccc(CO)cc1
No

Threshold query (composite Z-score >= -0.1) on COC(=O)[C@@]1(Cc2ccccc2)[C@H]2c3cc(C(=O)N(C)C)n(CCN4CNCC4=O)c3C[C@H]2CN1C(=O)c1ccccc1
Yes

Threshold query (composite Z-score >= -0.1) on COCCOC(=O)N1C(=O)[C@@]2(c3cc(C#CC4=CCCCC4)ccc31)[C@H](c1ccc(OCCO)cc1)N1[C@H](c3ccccc3)[C@H](c3ccccc3)OC(=O)[C@H]1[C@@H]2C(=O)NC[C@H](O)c1ccccc1
Yes

Threshold query (composite Z-score >= -0.1) on CC(C)C(=C=CC[C@H](O)c1cccc(OCCO)c1)C[C@H](O)c1cc(Cl)cc(Cl)c1O
Yes

Threshold query (composite Z-score >= -0.1) on C=C(COC)/C(=C/C[C@H](OC(=O)c1ccncc1)c1ccccc1OCCO)c1cnc2ccccc2c1
Yes

Threshold query (composite Z-score >= -0.1) on CC(C)Cc1ccc(CN2CC[C@@H](NC(=O)Nc3ccccc3)C2)cc1
No
